# TESTED SYSTEM: human MC4R receptor (human, UniProt P32245 1-332)
# Sequence (P32245 whole entry): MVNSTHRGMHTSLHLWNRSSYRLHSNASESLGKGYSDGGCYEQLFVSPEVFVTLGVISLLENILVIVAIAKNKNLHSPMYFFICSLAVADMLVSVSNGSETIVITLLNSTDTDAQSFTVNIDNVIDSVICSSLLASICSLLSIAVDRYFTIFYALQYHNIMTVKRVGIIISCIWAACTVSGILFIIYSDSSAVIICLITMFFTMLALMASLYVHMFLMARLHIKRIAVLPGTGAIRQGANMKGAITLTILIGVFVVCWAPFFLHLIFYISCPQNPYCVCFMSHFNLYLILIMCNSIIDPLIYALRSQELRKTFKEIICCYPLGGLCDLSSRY
# PROTOCOL: cell-based or functional assay
Positions of bridges follow the written chain, without caps; N, C: chain ends. Non-standard residues stand in square brackets, D forms with d. Cit = NC(=O)NCCC[C@H](N)C(=O)O; Aib = CC(C)(N)C(=O)O
MEASURED QUANTITY: MC4R selectivity vs MC3R
Lab note: write the figure by itself, no unit.

What the record says about Ac-CGR[dF]RWC-NH2 (disulfide 1-7; SMILES CC(=O)N[C@H]1CSSC[C@@H](C(N)=O)NC(=O)[C@H](Cc2c[nH]c3ccccc23)NC(=O)[C@H](CCCNC(=N)N)NC(=O)[C@@H](Cc2ccccc2)NC(=O)[C@H](CCCNC(=N)N)NC(=O)CNC1=O) [CTX-1629] : MC4R selectivity vs MC3R is 19

MC4R selectivity vs MC3R recorded for this binder, Ac-RC[Aib][Cit][dF]RWC-NH2 (disulfide 2-8) [CTX-1289] , is 30

Moving on to another binder below.
The binder listed as Ac-CG[Cit][dF]RWC-NH2 (disulfide 1-7; SMILES CC(=O)N[C@H]1CSSC[C@@H](C(N)=O)NC(=O)[C@H](Cc2c[nH]c3ccccc23)NC(=O)[C@H](CCCNC(=N)N)NC(=O)[C@@H](Cc2ccccc2)NC(=O)[C@H](CCCNC(N)=O)NC(=O)CNC1=O) [CTX-1630] shows MC4R selectivity vs MC3R equal to 28
